biological target: full length Akt1 (WT) (UniProt P31749 1-480); assay: fluorescence polarisation
Sequence (P31749 whole entry): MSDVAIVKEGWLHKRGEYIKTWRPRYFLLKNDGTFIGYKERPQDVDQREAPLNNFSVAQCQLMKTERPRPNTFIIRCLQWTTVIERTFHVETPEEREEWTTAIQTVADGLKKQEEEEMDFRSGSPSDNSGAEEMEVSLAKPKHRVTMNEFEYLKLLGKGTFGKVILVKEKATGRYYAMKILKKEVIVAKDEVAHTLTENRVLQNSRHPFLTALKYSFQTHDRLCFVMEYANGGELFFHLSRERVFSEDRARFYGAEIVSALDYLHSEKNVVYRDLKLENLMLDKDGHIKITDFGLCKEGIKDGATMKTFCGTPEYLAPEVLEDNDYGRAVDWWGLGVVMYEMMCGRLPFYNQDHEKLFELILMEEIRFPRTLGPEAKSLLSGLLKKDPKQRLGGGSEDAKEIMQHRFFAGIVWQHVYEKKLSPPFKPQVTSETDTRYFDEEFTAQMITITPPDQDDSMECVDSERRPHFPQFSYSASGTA
Non-standard residues stand in square brackets, D forms with d. No end group written: not given here.
observable: Kd

// query Item under review: [dY][dL][dE][dA][dF] (also: label-modified, label not given here) [label-modified yleaf peptide used in fluorescence polarization] . Reported Kd?
// result > 1000 nM
